Data origin: the supplement of paper PMC10567573

B1: DFFB (parent)
chain: KLNCDPSRIYKPQTRLKRKQPVRK

- Variants of: B1
- ASSAY_OVERVIEW: protein stability index of a GFP-peptide fusion (GPS, HEK-293T) (PSI 1-6); higher = more stable;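 note: lentivirally expressed fusions sorted by FACS into six bins by GFP to DsRed ratio, PSI derived from sequencing read proportions per bin multiplied by bin number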
- CONDITION_NOTES: c terminus: a fixed tail appended
TEST_READOUT: protein stability index

In [3]: df
Out[3]:
    mutation_name             test_readout  assay_result
 0           K17L  protein stability index          2.14
 1            R8L  protein stability index           2.9
 2            L2V  protein stability index          4.01
 3            I9S  protein stability index          2.51
 4           T14D  protein stability index          3.28
 5           K24F  protein stability index           2.7
 6           T14P  protein stability index          3.11
 7           R15T  protein stability index          3.76
 8            D5F  protein stability index          3.08
 9            S7I  protein stability index          3.41
10           K24R  protein stability index          3.96
11            I9M  protein stability index           3.3
12            P6H  protein stability index          3.39
13           R15F  protein stability index          3.25
14           K19C  protein stability index          2.69
15           K11V  protein stability index          3.95
16           L16D  protein stability index          2.92
17            S7A  protein stability index          3.28
18           R23T  protein stability index          3.77
19           K17S  protein stability index          3.35
20           V22G  protein stability index          4.39
21           Q13C  protein stability index          3.56
22           Q13V  protein stability index           3.8
23           R23C  protein stability index          3.21
24           Y10A  protein stability index          2.92
25            D5I  protein stability index          2.74
26           K17R  protein stability index          3.18
27           R23W  protein stability index          2.59
28           K11T  protein stability index           3.2
29            C4F  protein stability index           3.5
30           R15E  protein stability index          3.68
31           K19R  protein stability index           3.9
32            C4I  protein stability index          2.73
33            C4Q  protein stability index          3.78
34            S7H  protein stability index          3.21
35            D5V  protein stability index          2.98
36            C4Y  protein stability index          3.51
37           Q20T  protein stability index          4.39
38           K24Q  protein stability index          3.18
39            D5L  protein stability index          3.06
40           Q13D  protein stability index          3.83
41           V22Q  protein stability index          3.39
42           V22W  protein stability index          3.26
43           K11I  protein stability index          3.16
44           Q20S  protein stability index          2.75
45           Q13P  protein stability index          3.76
46           V22F  protein stability index          3.48
47            I9L  protein stability index          3.81
48           R23S  protein stability index          3.49
49            R8C  protein stability index          3.63
50            K1V  protein stability index          3.57
51           R23E  protein stability index          3.34
52            D5R  protein stability index          3.34
53           Y10M  protein stability index          3.38
54            L2G  protein stability index          4.94
55            I9C  protein stability index          4.01
56           K11S  protein stability index          2.89
57           P21C  protein stability index          3.36
58           R23Q  protein stability index           3.9
59           K11H  protein stability index          2.94
60            C4R  protein stability index          4.12
61           V22L  protein stability index          3.62
62           V22R  protein stability index          2.03
63           R15V  protein stability index          3.49
64            S7E  protein stability index          3.53
65            S7T  protein stability index          3.46
66           Q13N  protein stability index             3
67           L16Y  protein stability index          3.77
